- Tested on: A549-mRuby cells
- test-protocol: Drug screening: effect on cell growth (cell number day 4 / day 0)
- conditions: 10 μM drug, repeat #1
measurement-name: Growth_1: number of cells at day 4 divided by number of cells at day 0
Respond using a number only.

Find the recorded Growth_1: number of cells at day 4 divided by number of cells at day 0 belonging to COc1ccc(CN2CCN(C(c3ccc(F)cc3)c3ccc(F)cc3)CC2)c(OC)c1OC.Cl.Cl [Lomerizine 2HCl] and report it. 4.7

###

- Tested on: A549-mRuby cells
- test-protocol: Drug screening: effect on cell growth (cell number day 4 / day 0)
- conditions: 10 μM drug, repeat #1
- Procedure: A549-mRuby cells were seeded (3,000 cells per well) in nine 384-well plates using Multidrop combi. Cells were seeded in a final volume of 30 μl with DMEM+10% BCS. The following day, 20 μl of OC43 were added (MOI 0.3) and incubated at 33° C., 5% CO2 for 1 hour. 50 nl from the Selleck FDA-approved drug library (cat #L1300, Selleck) were added (1:1,000 dilution). Two columns (32 wells) were left uninfected and two columns were treated with DMSO and virus (no drug control). […]
Counter-ions that a name gives are not always drawn.
The reader will find reported Growth_1: number of cells at day 4 divided by number of cells at day 0 values listed item by item below.
Please give only the number in your answer, with no unit.

Some entries whose results are on file:
compound	obs-value
CC(C)NCC(O)COc1cccc2ccccc12 (stereo not shown) [Propranolol HCl]	5.6
CO[C@H]1/C=C/O[C@@]2(C)Oc3c(C)c(O)c4c(c3C2=O)C2=NC3(CCN(CC(C)C)CC3)NC2=C(NC(=O)/C(C)=C\C=C\[C@H](C)[C@H](O)[C@@H](C)[C@@H](O)[C@@H](C)[C@H](OC(C)=O)[C@@H]1C)C4=O	5.5
CCCCOc1cc(C(=O)NCCN(CC)CC)c2ccccc2n1	4.3
CCC(=O)O[C@]1(C(=O)SCF)[C@H](C)C[C@H]2[C@@H]3C[C@H](F)C4=CC(=O)C=C[C@]4(C)[C@@]3(F)[C@@H](O)C[C@@]21C [Fluticasone propionate]	3.8

// lookup Growth_1: number of cells at day 4 divided by number of cells at day 0 for OCCOCCN1CCN(C2=Nc3ccccc3Sc3ccccc32)CC1 [Quetiapine Fumarate] 3.6

Could you tell me which Growth_1: number of cells at day 4 divided by number of cells at day 0 is on file for OCCN1CCN(CCCN2c3ccccc3Sc3ccc(Cl)cc32)CC1 ? 2.2

Given the compound CN1C2CCC1CC(OC(c1ccccc1)c1ccccc1)C2.CS(=O)(=O)O (stereo not shown) [Benztropine mesylate] , what is its reported Growth_1: number of cells at day 4 divided by number of cells at day 0? 4.4

###

- Tested on: A549-mRuby cells
- test-protocol: Drug screening: effect on cell growth (cell number day 4 / day 0)
- conditions: 10 μM drug, repeat #2
measurement-name: Growth_2: number of cells at day 4 divided by number of cells at day 0
Please give only the number in your answer, with no unit.

Example cases with answers are listed next.
compound	obs-value
COc1cc2c(cc1OC)CN(CCc1ccc(NC(=O)c3cccc4c(=O)c5cccc(OC)c5[nH]c34)cc1)CC2	5.8
COc1cc2c(Oc3ccc4[nH]c(C)cc4c3F)ncnc2cc1OCCCN1CCCC1	2.4
OCc1cc(C(O)CNCCCCCCOCCCCc2ccccc2)ccc1O (centres unmarked) [Salmeterol Xinafoate]	2.5
CN1CCN(CCCN2c3ccccc3Sc3ccc(C(F)(F)F)cc32)CC1.Cl.Cl [Trifluoperazine 2HCl]	2.1
COc1cc2ncnc(Nc3ccc(F)c(Cl)c3)c2cc1OCCCN1CCOCC1 [Gefitinib (ZD1839), Gefitinib]	3.7

In the following, a different compound is considered.
Enter reported Growth_2: number of cells at day 4 divided by number of cells at day 0 observed with A549-mRuby cells for CN1CCN(CCCN2c3ccccc3Sc3ccc(Cl)cc32)CC1 [Prochlorperazine Dimaleate] 3.0

###

activity at 10 µM: recorded values
- Test system: OC43
- test-protocol: Drug screening: OC43 nucleoprotein staining in infected A549-mRuby cells
- Format: cell-based, human beta coronavirus OC43
- conditions: Betacoronavirus 1, OC43, 96 h, 10 μM drug, MOI 0.3, 4 days; normalized to no-drug controls in the same plate; repeat #2; read-out: OC43_2: % staining of OC43 in screen repeat #2
Counter-ions that a name gives are not always drawn.
The reply should be a number in %, with the unit left off.

Worked examples follow.
molecule	subject-of-test	u	activity at 10 µM
COc1cc2c(Oc3ccc4[nH]c(C)cc4c3F)ncnc2cc1OCCCN1CCCC1	OC43	%	20.2
Cc1ccccc1C(OCCN(C)C)c1ccccc1 (stereo not shown) [Orphenadrine Hydrochloride]	OC43	%	63.6
CN1CCN(CCCN2c3ccccc3Sc3ccc(Cl)cc32)CC1 [Prochlorperazine Dimaleate]	OC43	%	25
COc1ccc2cc1Oc1ccc(cc1)C[C@H]1c3c(cc4c(c3Oc3cc5c(cc3OC)CCN(C)[C@@H]5C2)OCO4)CCN1C	OC43	%	12.1
COc1cc2c(cc1OC)CN(CCc1ccc(NC(=O)c3cccc4c(=O)c5cccc(OC)c5[nH]c34)cc1)CC2	OC43	%	38.3
Cc1ccc(O)c([C@H](CCN(C(C)C)C(C)C)c2ccccc2)c1.O=C(O)C(O)C(O)C(=O)O [Tolterodine tartrate]	OC43	%	11.6

Turning now to a further molecule:
Bench note: what activity at 10 µM did CN1CCN(C2=Nc3cc(Cl)ccc3Nc3ccccc32)CC1 show? 46.9

###

- System: OC43
- test-protocol: Drug screening: OC43 nucleoprotein staining in infected A549-mRuby cells
- Format: cell-based, human beta coronavirus OC43
- conditions: Betacoronavirus 1, OC43, 96 h, 10 μM drug, MOI 0.3, 4 days; normalized to no-drug controls in the same plate; repeat #1; read-out: OC43_1: % staining of OC43 in screen repeat #1
Structures can show the parent of a compound that is named as a salt.
measurement-name: activity at 10 µM (%)
Please give a number only; it is taken to be in %.

compound	obs-value
CN1CCN(C2=Nc3cc(Cl)ccc3Nc3ccccc32)CC1	15.8
COC(=O)N[C@H](C(=O)N1CCC[C@H]1c1ncc(-c2ccc3c(c2)O[C@@H](c2ccccc2)n2c-3cc3cc(-c4cnc([C@@H]5CCCN5C(=O)[C@@H](NC(=O)OC)C(C)C)[nH]4)ccc32)[nH]1)C(C)C	18.8
CCCCOC(=O)c1ccc(O)cc1	7
C#C[C@]1(O)CC[C@H]2[C@@H]3CCC4=CC(=O)CC[C@@H]4[C@H]3C(=C)C[C@@]21CC	47.8
CN1CCCC(n2nc(Cc3ccc(Cl)cc3)c3ccccc3c2=O)CC1.O (stereo not drawn) [Azelastine HCl]	19.6

Sample Cc1ccccc1C(OCCN(C)C)c1ccccc1 (stereo not drawn) [Orphenadrine Hydrochloride] — what was its activity at 10 µM? 11.7

Entry under review: CN(C)CCCOc1nn(Cc2ccccc2)c2ccccc12 [Benzydamine HCl] . Reported activity at 10 µM? 26.2

Given the entry COc1ccccc1OCCNCC(O)COc1cccc2[nH]c3ccccc3c12 (stereo not drawn) , report its measured activity at 10 µM. 20.1

Give the measured activity at 10 µM of COc1ccc2cc1Oc1ccc(cc1)C[C@H]1c3c(cc4c(c3Oc3cc5c(cc3OC)CCN(C)[C@@H]5C2)OCO4)CCN1C . 28.5

What measured activity at 10 µM goes with CO[C@H]1/C=C/O[C@@]2(C)Oc3c(C)c(O)c4c(c3C2=O)C2=NC3(CCN(CC(C)C)CC3)NC2=C(NC(=O)/C(C)=C\C=C\[C@H](C)[C@H](O)[C@@H](C)[C@@H](O)[C@@H](C)[C@H](OC(C)=O)[C@@H]1C)C4=O ? 25.8

Find the recorded activity at 10 µM belonging to OCc1cc(C(O)CNCCCCCCOCCCCc2ccccc2)ccc1O (stereo not drawn) [Salmeterol Xinafoate] and report it. 39.3

For the compound Cc1ccc(O)c([C@H](CCN(C(C)C)C(C)C)c2ccccc2)c1.O=C(O)C(O)C(O)C(=O)O [Tolterodine tartrate] , what activity at 10 µM is on record? 21.7

Query (compound): CNCCC=C1c2ccccc2CCc2ccccc21.O [Nortriptyline hydrochloride] ; field requested: activity at 10 µM 25.2

Would you mind telling me what activity at 10 µM value was observed for CN1[C@@H]2CC[C@H]1C[C@@H](OC(=O)c1c[nH]c3ccccc13)C2 [Tropisetron HCl] ? 52.6

Quick one: activity at 10 µM for CN1CCC(OC(c2ccccc2)c2ccccc2)CC1 [Diphenylpyraline HCl] ? 33.2

###

- System: A549-mRuby cells
- test-protocol: Drug screening: effect on cell growth (cell number day 4 / day 0)
- conditions: 10 μM drug, repeat #2
Where a name gives a salt, the structure may show the parent alone.
Reported Growth_2: number of cells at day 4 divided by number of cells at day 0 maps to class as: lower segment (below 4), middle segment (4 to below 5), upper segment (5 or more)

Use these answered entries as a reference point.
compound	label-class
CC(C)c1nc(CN(C)C(=O)N[C@@H](CCN2CCOCC2)C(=O)N[C@H](CC[C@H](Cc2ccccc2)NC(=O)OCc2cncs2)Cc2ccccc2)cs1 [Cobicistat (GS-9350), Cobicistat]	upper segment
CC[C@H]1OC(=O)[C@H](C)[C@@H](O[C@H]2C[C@@](C)(OC)[C@@H](O)[C@H](C)O2)[C@H](C)[C@@H](O[C@@H]2O[C@H](C)C[C@H](N(C)C)[C@H]2O)[C@](C)(O)C[C@@H](C)CN(C)[C@H](C)[C@@H](O)[C@]1(C)O [Azithromycin]	middle segment
CN1CCCC(n2nc(Cc3ccc(Cl)cc3)c3ccccc3c2=O)CC1.O (stereo not drawn) [Azelastine HCl]	lower segment
OCCN1CCN(CCCN2c3ccccc3Sc3ccc(Cl)cc32)CC1 [Perphenazine]	lower segment
CN(C)CCCN1c2ccccc2CCc2ccccc21.O [Imipramine HCl]	middle segment

Sort into band: COc1ccc(NC(=O)c2ccc(C(=N)N(C)C)cc2)c(C(=O)Nc2ccc(Cl)cn2)c1 [Betrixaban] upper segment

Band of CCC(=O)O[C@]1(C(=O)SCF)[C@H](C)C[C@H]2[C@@H]3C[C@H](F)C4=CC(=O)C=C[C@]4(C)[C@@]3(F)[C@@H](O)C[C@@]21C [Fluticasone propionate] ? middle segment

Given CN[C@H]1C(=O)N[C@@H]2Cc3ccc(cc3)Oc3cc4cc(c3O[C@@H]3O[C@H](C(=O)O)[C@@H](O)[C@H](O)[C@H]3NC(=O)CCCCCCCCC(C)C)Oc3ccc(cc3Cl)[C@@H](O)[C@@H]3NC(=O)[C@H](NC(=O)[C@@H]4NC(=O)[C@@H](NC2=O)c2cc(cc(O)c2Cl)Oc2cc1ccc2O)c1ccc(O)c(c1)-c1c(O[C@H]2O[C@H](CO)[C@@H](O)[C@H](O)[C@@H]2O)cc(O)cc1[C@@H](C(=O)NCCCN(C)C)NC3=O [Dalbavancin] , name the class its Growth_2: number of cells at day 4 divided by number of cells at day 0 places it in. upper segment

Dear colleague, I would appreciate it if you could identify the bin for C[C@@H]1CCN(C(=O)CC#N)C[C@@H]1N(C)c1ncnc2[nH]ccc12.O=C(O)CC(O)(CC(=O)O)C(=O)O [Tofacitinib (CP-690550) Citrate] and reply at your convenience. middle segment

Would you mind sorting CCCOC(C(=O)OC1CCN(C)CC1)(c1ccccc1)c1ccccc1 [Propiverine hydrochloride] into the appropriate category? lower segment
